targetOrSystem: Casein kinase I isoform gamma-1 (Homo sapiens);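 note: reported as mean inhibition, part of GSK PKIS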
recordedConditions: at 0.1 µM

>  <smilesNotation>
CCCN1CCC(Oc2cc(Nc3nc(Nc4cccc(F)c4C(N)=O)c4cc[nH]c4n3)c(OC)cc2Cl)CC1

>  <inhibition>
-0.95%

$$$$
>  <smilesNotation>
N#Cc1c(NC(=O)c2cccc3ccccc23)sc2c1CCCC2

>  <inhibition>
2.73%

$$$$
>  <smilesNotation>
COc1ccc(-c2coc3ncnc(N)c23)cc1

>  <inhibition>
4.29%

$$$$
>  <smilesNotation>
COc1cc2ncn(-c3cc(O[C@@H](C)c4ccccc4Cl)c(C(N)=O)s3)c2cc1OC

>  <inhibition>
4.61%

$$$$
>  <smilesNotation>
CCn1c(-c2nonc2N)nc2cnc(Oc3cccc(NC(=O)c4ccc(OCCN5CCOCC5)cc4)c3)cc21

>  <inhibition>
3.07%

$$$$
